assay_details: Drug metabolism in Sprague-Dawley rat heart assessed as fluoro-acetic acid metabolite level at 100 mg/kg, po measured after 2 to 8 hrs
Type: ADME, organism-based
run_conditions: in vivo
observation_type: Drug metabolism

INSERT INTO measurements (smiles_string, observation_type, measured_value) VALUES
  ('C[C@H](NC(=O)[C@H](Cc1ccccc1)NC(=O)OCc1ccccc1)C(=O)CF', 'Drug metabolism', '0.2 to 0.9 µg/g');

---

assay_system: MGST1 (microsomal glutathione S-transferase 1) (Rattus norvegicus)
Sequence (P08011 whole entry): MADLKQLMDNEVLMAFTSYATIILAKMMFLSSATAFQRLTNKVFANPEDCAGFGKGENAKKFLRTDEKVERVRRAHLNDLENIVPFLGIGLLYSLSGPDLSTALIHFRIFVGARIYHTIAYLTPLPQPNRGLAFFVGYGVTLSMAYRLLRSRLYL
assay_details: Substrate activity at MGST1 in rat liver microsomes assessed as substrate depletion at 50 uM incubated for 30 mins in presence of GSH by liquid chromatography/mass spectrometry
Format: ADME
run_conditions: read-out: Activity
observation_type: metabolised at 0.5 h, 50 µM (%)

INSERT INTO measurements (smiles_string, limit_sign, measured_value) VALUES
  ('Nc1cccnc1Cl', '<', 5),
  ('Oc1cccnc1Cl', '<', 5),
  ('Cc1cccnc1Cl', '=', 14),
  ('FC(F)(F)c1cccnc1Cl', '=', 31),
  ('Clc1cccnc1Cl', '=', 26),
  ('O=[N+]([O-])c1cccnc1Cl', '=', 100),
  ('COc1cccnc1Cl', '=', 17);

Every entry's value here was drawn from ChEMBL document CHEMBL4613261.
